measurement kind: melting point (°C)
Give the number; °C is assumed, so skip it.

Examples with their reported melting point follow.
In [3]: df
Out[3]:
                                   molecule  measurement_kind  data_value
0  COc1cc(C=NO)ccc1O [Test compound 10, 4-hydroxy-3-methoxybenzaldoxime]     melting point       118.2
1  CCON=Cc1ccc(O)c(OCC)c1 [Test compound 4]     melting point          43
2   CCON=Cc1ccc(O)c(OC)c1 [Test compound 7]     melting point        31.7
3  CCON=Cc1ccc(O)c(O)c1 [Test compound 11, 3,4-dihydroxybenzaldehyde O-ethyloxime]     melting point          23
4   CCON=Cc1ccc(OC)c(O)c1 [Test compound 3]     melting point        61.4

Any idea what its melting point is? The molecule is COc1ccc(C=NO)cc1O [Test compound 6, 3-hydroxy-4-methoxybenzaldoxime]
142.4

* * *

Examples of compounds with documented melting point follow.

In the examples that follow, each entry is paired with its recorded melting point.
                                   compound     data_value
0  ON=Cc1ccc(O)c(O)c1 [Test compound 5, 3,4-dihydroxybenzaldoxime]  143 °C (dec.)
1  CCOc1cc(C=NO)ccc1O [Test compound 9, 3-ethoxy-4-hydroxybenzaldoxime]  189 °C (dec.)
2            Cc1ccc(CON=Cc2ccc(O)c(O)c2)cc1    85 to 86 °C

Switching to the query record.
Recorded melting point of ON=Cc1cc(O)c(O)c(O)c1 [Test compound 2, 3,4,5-trihydroxybenzaldoxime] , please.
177 °C (dec.)
